Values were extracted from the array DNA melting data of Ke et al. (doi:10.1101/2024.01.08.574731).

assay: folding enthalpy; higher = less favourable; fluorescence melt of hairpins on a sequencing array, two-state fit; settings: sodium 0.088 M
Known folding enthalpy of a selection of sequences
Quick note: give the figure in kcal/mol, leave out the unit.

- residue string: "GATCCCAACTGGGATC ((((((....))))))"
  u: "kcal/mol"
  folding enthalpy: -39.5
- residue string: "GGCTGCGGAAACGTGGCC (((..((....))..)))"
  u: "kcal/mol"
  folding enthalpy: -45.6
- residue string: "GATCTTCGCAAGATC ((((((...))))))"
  u: "kcal/mol"
  folding enthalpy: -33.7
- residue string: "GCGAAGGAAACTTCGC ((((((....))))))"
  u: "kcal/mol"
  folding enthalpy: -34.8
- residue string: "GTAATAGAAATATTAC ((((((....))))))"
  u: "kcal/mol"
  folding enthalpy: -16.6

Give recorded folding enthalpy. GCCTGGCGAAAGCAATGC ((.(.((....)).).)) -7.84

###

experiment: melting temperature; fluorescence melt of hairpins on a sequencing array, two-state fit, raised by 9.35 °C to match UV melts; conditions: sodium 0.088 M
Here the recorded Tm is given for each entry.

- residue string: "GTTCACGAAAGTGAGAAC ((((((....)))..)))"
  test value: "37.5 °C"

Annotate the sequence GATCGGCCTCCCGATC ((((((....)))))) with its measured Tm. 55.8 °C

Supply reported Tm belonging to this sequence: GATCAGGCATCTGATC ((((((....)))))) 55.6 °C

Annotate the sequence GAGGACGAAAGTCGTCTC ((((((....)))..))) with its measured Tm. 52.2 °C

Indicate the recorded Tm value for this sequence: GAAGGCACGAAAGTGTTC (((..(((....)))))) 24.6 °C

Identify measured Tm associated with GCTTGGTCGAAAGACAGC (((..(((....)))))) 43.2 °C

For the sequence GATCCCCTCCGGGATC ((((((....)))))) , report Tm. 58.4 °C

State its Tm: GGTCACACGAAAGTGACC (((..(((....)))))) 58.2 °C

Determine from records and report Tm for GATCGTTCCCACGATC ((((((....)))))) 53.8 °C

Note down Tm recorded for GCGGGCGTCCGC ((((....)))) 58.6 °C

Specify measured Tm for GAGCTCGGAAACGAACCC (.(.(((....))).).) . 19.5 °C

Please look at this sequence and report its Tm: GATCTCAATGAGATC ((((((...)))))) 50.6 °C

Using the record for GATCATGTAGATGATC ((((((....)))))) , state its measured Tm. 51 °C

Please list Tm recorded for the sequence GTCTCACCGAAAGGTGAC (((..(((....)))))) 36.1 °C

Please look at this sequence and report its Tm: GGGCCCGAAAGGGTTCCC ((((((....)))..))) 51.5 °C

Determine from records and report Tm for GAGCACGGAAACATGCTC (((((.(....).))))) 45.4 °C

Return Tm (reported value) for this sequence: GGTGCGACGAAAGTCACC (((..(((....)))))) 42.5 °C

Fill in reported Tm for this entry: GGGTCCGCGAAAGCGCCC (((..(((....)))))) 40 °C
